kon values for the binders below.
- Target desc: T1, human FGFR2b (Kaixia Biotechnology, catalog number FGR-HM1BB) (human, UniProt P21802-3 22-378)
- T1 construct: extracellular domain; bought; also called hFGFR2b; human FGFR2b protein
- T1 sequence (P21802 other isoform, or with tags, fused parts or gaps): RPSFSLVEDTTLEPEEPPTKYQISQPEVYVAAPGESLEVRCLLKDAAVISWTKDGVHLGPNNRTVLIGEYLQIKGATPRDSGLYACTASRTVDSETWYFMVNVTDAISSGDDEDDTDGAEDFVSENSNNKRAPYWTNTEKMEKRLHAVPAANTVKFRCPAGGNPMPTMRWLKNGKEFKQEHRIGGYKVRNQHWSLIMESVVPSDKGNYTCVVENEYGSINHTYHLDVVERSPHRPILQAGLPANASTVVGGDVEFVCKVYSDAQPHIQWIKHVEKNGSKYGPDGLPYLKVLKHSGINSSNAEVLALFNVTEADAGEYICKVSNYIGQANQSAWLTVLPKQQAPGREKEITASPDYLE
- Protocol notes: BLI, antibody on AHC2 sensor
API: value field is a number in M⁻¹ s⁻¹; no unit string.

>  <Binder>
3H9-VH3-VL1 (antibody, human IgG1, kappa, V domains shown, humanized IgG1) VH: QVQLVQSGAEVKKPGASVKVSCKASGYTFSFYNMHWVKQAPGQGLEWIGLIYPDNGDTSYNQKFKGRATLTADTSTSTVYMELSSLRSEDTAVYYCARGGLDYWGQGTTVTVSS VL: DIQMTQSPSSLSASVGDRVTITCRASENIYSNLAWYQQKPGKSPKLLIYAATNLADGVPSRFSGSGSGTDYTLTISSLQPEDFATYYCQHFWGTPYTFGGGTKVEIKR

>  <kon (M⁻¹ s⁻¹)>
527000

$$$$

Req: What kon value was documented for this binder, 3H9-VH0-VL1 (antibody, human IgG1, kappa, V domains shown, humanized IgG1) VH: QVQLVQSGAEVKKPGASVKVSCKASGYTFTFYNMHWVRQAPGQGLEWMGLIYPDNGDTSYNQKFKGRATLTADTSTSTVYMELSSLRSEDTAVYYCARGGLDYWGQGTTVTVSS VL: DIQMTQSPSSLSASVGDRVTITCRASENIYSNLAWYQQKPGKSPKLLIYAATNLADGVPSRFSGSGSGTDYTLTISSLQPEDFATYYCQHFWGTPYTFGGGTKVEIKR ?
Resp: 505000
